- testedTarget: MAGI3_6, Q5TCQ9
- Sequence (Q5TCQ9 1014-1103): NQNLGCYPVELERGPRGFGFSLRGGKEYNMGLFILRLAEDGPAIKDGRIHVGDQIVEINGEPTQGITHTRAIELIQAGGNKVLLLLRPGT
- assayExplanation: holdup assay
- Set-up: key: below the threshold = too weak to quantify, mostly under pKd 3.1 to 4
- runParameters: plain residues with an end cap or a label only (N-terminal biotin on a linker: ttds)
quantityKind: pKd

>>> measurement("SKPTRRETEV [HPV35-E6, P27228]")
3.81
>>> measurement("QRQARSETLV [HPV59-E6, Q81964]")
"below the threshold"
>>> measurement("RLQRRRETQV [HPV18-E6, P06463]")
"below the threshold"
>>> measurement("RHTTSTETAV [HPV30-E6, P36809]")
"below the threshold"
